For each entry below, report its growth inhibition value.
method: NCI Yeast Anticancer Drug Screen. Data for the cln2 rad14 strain (AID 165);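 also: 0% = growth equal to vehicle treated cultures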
run_parameters: S. cerevisiae cln2 rad14 strain, at 5.0 µM (retest, dose inferred, filed as 0.5), active compounds read high
This is part of a sample that, as a whole, favours compounds with a hit. Of some 79,000 tested, about 15% had one in any assay.
Give bare numbers, in %.

- compound: "C[N+](C)(C)CC(=O)N/N=C(\\C(=O)NC1=C(Cl)C(=O)c2ccccc2C1=O)C(C#N)c1nc(-c2ccc([N+](=O)[O-])cc2)cs1 (stereo not given)"
  outcome_measure: "growth inhibition"
  unit_text: "%"
  obs_value: 13
- compound: "CCCCCCCCCCCCNC(=O)C[n+]1ccc(C(N)=O)cc1"
  outcome_measure: "growth inhibition"
  unit_text: "%"
  obs_value: -6
- compound: "O=C(O)CN(CC(=O)O)C1CCCCC1N1CC(=O)OC(=O)C1 (stereo not given)"
  outcome_measure: "growth inhibition"
  unit_text: "%"
  obs_value: 3
- compound: "CCCCN(CCCC)CC(=O)c1ccc2cc(Cl)c3ccccc3c2c1"
  outcome_measure: "growth inhibition"
  unit_text: "%"
  obs_value: 7

// next item, growth inhibition requested
Consider the compound CCOC(=O)C1=C(C)NC(=O)NC1c1coc2cc(C)cc(C)c2c1=O (stereo not given) and give its measured growth inhibition.
20

----------
method: NCI Yeast Anticancer Drug Screen. Data for the mec2-1 strain (AID 157)
run_parameters: S. cerevisiae mec2-1 strain, at 50.0 µM, active compounds read high
Experimental: Growth inhibition of yeast strains with defined genetic alterations is measured as a screen for potential anti-cancer activity. Selected strains with alterations in DNA damage repair or cell cycle control were exposed to compounds and growth inhibition was measured relative to vehicle treated controls. The strain used in this assay is mec2-1
The panel holds about 79,000 compounds, 15% with a hit somewhere; the sample as a whole holds those more often. Calls of active or inactive are those of the source. No stated cut-off is given here; in the data, active means growth inhibition above about 70%; inactive means the rest.
For each entry below, report its growth inhibition value.

Study these solved cases before continuing.
- molecule: "COC(=O)NNc1c([N+](=O)[O-])cnn(-c2ccccc2)c1=O"
  obs_value: "0.55% (inactive)"
- molecule: "CN(C)CC(C)(CN(C)C)C(=O)/C=C/c1ccc(Cl)c(Cl)c1"
  obs_value: "99.8% (active)"
- molecule: "O=C1CCSC(=S)N1c1ccccc1C(F)(F)F"
  obs_value: "99.5% (active)"
- molecule: "CC1=CCCc2c1cc1ccc3cccc4ccc2c1c34"
  obs_value: "79.7% (active)"
- molecule: "CC(C)[C@H](N)C(=O)NCCNC(=O)[C@@H](N)C(C)C"
  obs_value: "-4.9% (inactive)"

Field: growth inhibition. Fill in for each record below.
1. Cn1ncc2c(Nc3cccc(Cl)c3)nc(Nc3cccc(Cl)c3)nc21
2. Oc1ccc(-c2ccc3ccccc3c2)cc1

1. 94.2% (active)
2. 99.3% (active)

Field: growth inhibition. Fill in for each record below.
1. CCOC(=O)c1sc(N/N=C2\NC(=O)/C(=C/c3ccc([N+](=O)[O-])cc3)S2)nc1C
2. c1ccc(CN(CCCOc2ccccc2)Cc2ccccc2)cc1
3. CC1(C)CC(=N/O)/C(=N/O)C(=N\NC(N)=S)/C1
4. Oc1ccccc1C(=NNc1ccccc1)c1ccccc1O
5. CN1CC(CN2CCCCC2)C(O)C(c2ccccc2)C1 (stereo unspecified)

1. 73.9% (active)
2. 29.9% (inactive)
3. 49.1% (inactive)
4. 94.8% (active)
5. -4.5% (inactive)

Field: growth inhibition. Fill in for each record below.
1. O=[N+]([O-])c1ccc(CCCl)c(CCl)c1
2. O=Nc1c2n[nH]c1CCCCCCCCC2
3. COc1ccccc1C(C)c1ccc2ccccc2c1C(=O)O (stereo unspecified)
4. c1csc(CNCc2cccs2)c1
5. Cc1cc(C)nc(/C=C/c2ccccc2)c1
6. Oc1cc2c(cc1C(c1ccc(Cl)cc1)N1CCOCC1)OCO2 (stereo unspecified)

["98.8% (active)", "99.4% (active)", "94% (active)", "1.45% (inactive)", "96.6% (active)", "99.2% (active)"]

Field: growth inhibition. Fill in for each record below.
1. Cc1ccc(N=Nc2sc(N)nc2C)cc1C
2. O=C1C2=C(CCCC2)C(=O)c2ccccc21
3. Nc1nc(SCc2ccccc2)c2ncn(CCCl)c2n1
4. CCCCCCCCCCCOc1cccc(N2C(N)=NC(N)=NC2(C)C)c1
5. O=[N+]([O-])c1ccc(C2=Nn3cnnc3SC2)o1
6. Cc1ccc(-c2ccccc2)n1-c1cc(Cl)ccc1O

1: 35.8% (inactive); 2: 13.7% (inactive); 3: 15.3% (inactive); 4: 99.5% (active); 5: 20.9% (inactive); 6: 99.2% (active)

Field: growth inhibition. Fill in for each record below.
1. N#CC(=C1C=CC(=NOC(=O)Nc2ccccc2)C=C1)c1ccccc1
2. Cc1ccc(OC/C=C/c2cccc(C#N)c2)cc1
3. CC1=CC(C2/C(=N/O)C=C(C)CC2(C)C)C(O)C(C)(C)C1 (stereo unspecified)
4. Cc1ccccc1Sc1ncnc2ccccc12

["99.4% (active)", "11.2% (inactive)", "98.2% (active)", "73.8% (active)"]

Field: growth inhibition. Fill in for each record below.
1. Cc1ccc(S(=O)(=O)NCCSCCSCCNS(=O)(=O)c2ccc(C)cc2)cc1
2. CCc1nc(N)nc(N)c1-c1ccc(NCCCN)c([N+](=O)[O-])c1
3. COc1ccc2ccccc2c1/C=C/C(=O)c1ccccc1
4. CC12CCC(=O)C=C1CCC1C2C(O)CC2(C)C(c3csc(N)n3)CCC12 (stereo unspecified)

1. 92.2% (active)
2. 44.8% (inactive)
3. 19.4% (inactive)
4. 96.8% (active)

Field: growth inhibition. Fill in for each record below.
1. Cc1nc(Nc2ccccc2)sc1C(=O)NNc1ccc([N+](=O)[O-])cc1[N+](=O)[O-]
2. O=[N+]([O-])c1cccc(C=Nc2ccccc2O)c1

1: 40.2% (inactive); 2: 41.8% (inactive)

Field: growth inhibition. Fill in for each record below.
1. CCCC(=S)N1CCOCC1
2. CC(CCC(=O)O)(c1cc(Br)c(O)c(Br)c1)c1cc(Br)c(O)c(Br)c1
3. C=C(CSCCCCCCCCCCCC)C(=O)O
4. Clc1ccc(/C(=C/c2ccccc2)Cn2ccnc2)cc1
5. Cc1ccc(N2C(=O)CSC2=S)cc1Br

1. -4.05% (inactive)
2. 90% (active)
3. 98.9% (active)
4. 78.8% (active)
5. 93% (active)

----------
method: NCI Yeast Anticancer Drug Screen. Data for the mec2-1 strain (AID 157)
run_parameters: S. cerevisiae mec2-1 strain, at 50.0 µM
This is part of a sample that, as a whole, favours compounds with a hit. Of some 79,000 tested, about 15% had one in any assay. Active and inactive are the calls of the source. No stated cut-off is given here; in the data, active means growth inhibition above about 70%; inactive means the rest.
Allowed answers: active, inactive

Consider the following illustrative entries.
- molecule: "COc1ccc(/C=C2\\Sc3scc(-c4ccc([N+](=O)[O-])cc4)[n+]3C2=O)cc1OC"
  group: "inactive"
- molecule: "CCC(CO)Nc1nc2cc(Br)ccc2c2ccc(Br)cc12 (stereo not given)"
  group: "active"
- molecule: "Cc1nc(C)c(C(=O)NNC(=O)C[N+](C)(C)C)cc1C(=O)NNC(=O)C[N+](C)(C)C"
  group: "inactive"
- molecule: "O=C(O)CN(CC(=O)O)C1CCCCC1N1CC(=O)OC(=O)C1 (stereo not given)"
  group: "active"
- molecule: "CN(C)CCCSc1c2ccccc2nc2cccc([N+](=O)[O-])c12"
  group: "inactive"
- molecule: "O=[N+]([O-])c1ccc(C2=Nn3c(nnc3-c3ccc(Cl)cc3)SC2)o1"
  group: "inactive"
- molecule: "CC1=C(C)C1[N+](=O)[O-]"
  group: "active"
- molecule: "COc1ccc(CCCCC(=O)O)cc1O"
  group: "inactive"
- molecule: "CCC[CH2][Sn]1([CH2]CCC)[O]CC([CH2][Sn]([c]2ccccc2)([c]2ccccc2)[c]2ccccc2)[O]1 (stereo not given)"
  group: "active"

// param item: CN(C)Cc1cc(N=Nc2ccc(Cl)c(Cl)c2)ccc1O ; yields the recorded call
inactive

----------
For each entry below, report its growth inhibition value.
method: NCI Yeast Anticancer Drug Screen. Data for the mec2-1 strain (AID 157)
run_parameters: S. cerevisiae mec2-1 strain, at 5.0 µM (retest, dose inferred, filed as 0.5), active compounds read high
This is part of a sample that, as a whole, favours compounds with a hit. Of some 79,000 tested, about 15% had one in any assay.
Give bare numbers, in %.

Study these solved cases before continuing.
- molecule: "Cc1ccccc1NC(=O)C(=O)C(C#N)c1c(Cl)cccc1Cl (configuration not stated)"
  growth inhibition (%): 6
- molecule: "Clc1ccc(CSc2ncnc3c2ncn3C2CCCCO2)cc1 (configuration not stated)"
  growth inhibition (%): -7
- molecule: "SCCc1ccccn1"
  growth inhibition (%): -2
- molecule: "CC(=O)Oc1ccccc1C(=O)/C=C/c1ccccc1"
  growth inhibition (%): 7
- molecule: "CC(=O)NNc1ccc(Cl)cc1[N+](=O)[O-]"
  growth inhibition (%): -5
- molecule: "S=c1nc(/C=C/c2ccc(Cl)c(Cl)c2)[nH][nH]1"
  growth inhibition (%): 28

Consider the molecule Cn1c(=O)c2c(nc([N+](=O)[O-])n2C)n(C)c1=O and give its measured growth inhibition.
9
